- Assay Overview: AUClast in Sprague-Dawley rat at 10 mg/kg, po measured upto 24 hrs by LC/MS-MS analysis
- Assay type: ADME, organism-based
- Run Parameters: in vivo
Property Name: AUC(0-t) at 24 h
Report as: number unit

The cases that follow already have their AUC(0-t) at 24 h on record.
// Input: CC1(C)COC(=O)[C@@H]2C[C@@H](C[C@@H](C#N)NC(=O)[C@@H]3[C@@H]4[C@H](CN3C(=O)[C@H]1NC(=O)C(F)(F)C1CC1)C4(C)C)C(=O)N2 . Output its AUC(0-t) at 24 h only.
119 ng·h/mL

Supply recorded AUC(0-t) at 24 h for COC(=O)N[C@@H]1C(=O)N2C[C@H]3[C@@H]([C@H]2C(=O)N[C@H](C#N)C[C@@H]2C[C@H](NC2=O)C(=O)OCC1(C)C)C3(C)C here.
72.9 ng·h/mL

For the molecule CC(C)(C)[C@H](NC(=O)C(F)(F)F)C(=O)N1C[C@H]2[C@@H]([C@H]1C(=O)N[C@H](C#N)C[C@@H]1CCNC1=O)C2(C)C , give its measured AUC(0-t) at 24 h value.
2020 ng·h/mL

Continue with the next molecule.
Give me measured AUC(0-t) at 24 h, please, for this molecule: CC1(C)CCOC(=O)[C@@H]2C[C@@H](C[C@@H](C#N)NC(=O)[C@@H]3[C@@H]4[C@H](CN3C(=O)[C@H]1NC(=O)C(F)(F)F)C4(C)C)C(=O)N2
5.94 ng·h/mL

###

Give measured Papp A→B at 2 h for each item. Keep answers brief.
- Assay Overview: Apparent permeability across apical to basolateral side in human Caco-2 cells incubated for 2 hrs by LC-MS/MS analysis
- Type: ADME, cell-based
Numbers only, in ×10⁻⁶ cm/s.

Worked set:
Specify measured Papp A→B at 2 h for CC1(C)COC(=O)[C@@H]2C[C@@H](C[C@@H](C#N)NC(=O)[C@@H]3[C@@H]4[C@H](CN3C(=O)[C@H]1NC(=O)OC1CC1)C4(C)C)C(=O)N2 .
0.08

Please report the measured Papp A→B at 2 h for COC(=O)N[C@@H]1C(=O)N2C[C@H]3[C@@H]([C@H]2C(=O)N[C@H](C#N)C[C@@H]2C[C@H](NC2=O)C(=O)OCC1(C)C)C3(C)C
0.16

Alright, here's another compound for you.
Give a short answer stating reported Papp A→B at 2 h for CC1(C)COC(=O)[C@@H]2C[C@@H](C[C@@H](C#N)NC(=O)[C@@H]3[C@@H]4[C@H](CN3C(=O)[C@H]1NC(=O)C(F)(F)F)C4(C)C)C(=O)N2 .
0.5

###

Hi there, I'd appreciate the recorded Cmax for every entry that follows.
- Assay Overview: Cmax in Sprague-Dawley rat at 10 mg/kg, po measured upto 24 hrs by LC/MS-MS analysis
- Assay type: ADME, organism-based
- Run Parameters: in vivo

Use the examples below as a reference point.
Tell us which Cmax value is on record for CC1(C)COC(=O)[C@@H]2C[C@@H](C[C@@H](C#N)NC(=O)[C@@H]3[C@@H]4[C@H](CN3C(=O)[C@H]1NC(=O)C(F)(F)C1CC1)C4(C)C)C(=O)N2
131 ng/mL

Supply measured Cmax of CC1(C)CCOC(=O)[C@@H]2C[C@@H](C[C@@H](C#N)NC(=O)[C@@H]3[C@@H]4[C@H](CN3C(=O)[C@H]1NC(=O)C(F)(F)F)C4(C)C)C(=O)N2 in your reply.
16.2 ng/mL

Note Cmax for the molecule shown: CC(C)(C)[C@H](NC(=O)C(F)(F)F)C(=O)N1C[C@H]2[C@@H]([C@H]1C(=O)N[C@H](C#N)C[C@@H]1CCNC1=O)C2(C)C
2840 ng/mL

Further cases:
Identify measured Cmax corresponding to COC(=O)N[C@@H]1C(=O)N2C[C@H]3[C@@H]([C@H]2C(=O)N[C@H](C#N)C[C@@H]2C[C@H](NC2=O)C(=O)OCC1(C)C)C3(C)C
87.5 ng/mL

###

- Assay System: Replicase polyprotein 1ab (Severe acute respiratory syndrome coronavirus 2, UniProt P0DTD1)
Property Name: IC50 (nM)
Answers are plain numbers, in nM.

State, in one line, measured IC50 of CC1(C)COC(=O)[C@@H]2C[C@@H](C[C@@H](C#N)NC(=O)[C@@H]3[C@@H]4[C@H](CN3C(=O)[C@H]1NC(=O)C(F)(F)Cc1ccccc1)C4(C)C)C(=O)N2
23

Answer with reported IC50 of COC(=O)N[C@@H]1C(=O)N2C[C@H]3[C@@H]([C@H]2C(=O)N[C@H](C#N)C[C@@H]2C[C@H](NC2=O)C(=O)OCCC1(C)C)C3(C)C
8.9

Continuing:
Report IC50 for CC1(C)CCCC[C@@H]2C[C@@H](C[C@@H](C#N)NC(=O)[C@@H]3[C@@H]4[C@H](CN3C(=O)[C@H]1NC(=O)OCc1ccccc1)C4(C)C)C(=O)N2
27
